System: HCC-2998 colon
Assay: NCI tumour cell line growth inhibition, 48 h; in the data active = GI50 below about 0.43 µM; inactive = the rest
Possible outcomes: active, inactive

[[record]]
molecule = "COc1ccc(C(=O)c2cc(C)c(OC)c(C)c2)cc1OC(=O)CCl"
system = "HCC-2998 colon"
category = "active"

[[record]]
molecule = "COc1cc2ncnc(-n3ncc4cc(NC(=O)Nc5ccccc5)ccc43)c2cc1OC"
system = "HCC-2998 colon"
category = "inactive"

[[record]]
molecule = "COc1ccc(/C=C/c2c(C(=O)/C=C/c3ccccc3)c(C)nc3ccccc23)cc1"
system = "HCC-2998 colon"
category = "inactive"

[[record]]
molecule = "CCNCCNc1cc(-c2ccc(C(F)(F)F)cc2)c(C#N)c2nc3ccccc3n12"
system = "HCC-2998 colon"
category = "inactive"

[[record]]
molecule = "O=C1/C(=C(/c2ccccc2)N2CCOCC2)Cc2ccccc21"
system = "HCC-2998 colon"
category = "inactive"

[[record]]
molecule = "O=C1c2cccnc2-c2nc(-c3ccc(Cl)cc3)cc3c2c1nc1ccccc13"
system = "HCC-2998 colon"
category = "inactive"

[[record]]
molecule = "S=c1ssc(N2CCOCC2)c1Cl"
system = "HCC-2998 colon"
category = "inactive"

[[record]]
molecule = "COc1c(C(=O)/C=C/c2ccccc2)c(O)cc2occc12"
system = "HCC-2998 colon"
category = "inactive"

[[record]]
molecule = "COc1ccc2[nH]c3c4[nH]c5ccc(OC)cc5c4c4c(c3c2c1)C(=O)NC4=O"
system = "HCC-2998 colon"
category = "inactive"

[[record]]
molecule = "CCCC(CCC)NCC(O)c1cc(-c2ccc(C(F)(F)F)cc2)nc(C(F)(F)F)c1 (stereo not given)"
system = "HCC-2998 colon"
category = "inactive"


* * *

Test system: MDA-MB-435
Experiment: NCI tumour cell line growth inhibition, 48 h
Please use t whenever TGI is not below 10 µM, and f whenever it is.

[[record]]
compound = "O=c1cc(NCC(O)CN2CCCC2)n(Cc2ccccc2)c(=O)n1Cc1ccccc1 (stereo unspecified)"
category = "t"

[[record]]
compound = "O=C1c2cccnc2-c2nc(-c3ccc(Cl)cc3)cc3c2c1nc1ccccc13"
category = "t"

[[record]]
compound = "O=C1c2ccsc2C(=O)c2sc(CO)cc21"
category = "f"

[[record]]
compound = "Nc1nc(-c2ccccc2)cc(-c2ccc(OCc3ccccc3)cc2O)n1"
category = "t"

[[record]]
compound = "NC(=O)c1cc(Cl)ccc1NC(=O)/C=C/c1ccccc1"
category = "f"

[[record]]
compound = "CCOC(=O)c1c(N2CCOCC2)[nH]c(=O)c(C(c2c(Cl)cccc2Cl)c2c(O)c(C(=O)OCC)c(N3CCOCC3)[nH]c2=O)c1O"
category = "t"

[[record]]
compound = "CC(=O)[C@@H](C)C(=O)N1C(=O)OC[C@@]12[C@@H]1CC[C@@H](C1)C2(C)C"
category = "t"

[[record]]
compound = "CCc1nc(N)nc(N)c1-c1ccc(NC)c([N+](=O)[O-])c1"
category = "t"

[[record]]
compound = "CCOC(=O)c1cn2c(n1)sc1cc(Cl)ccc12"
category = "t"

[[record]]
compound = "N#Cc1[nH]c(=O)n(-c2ccccc2)c1N"
category = "t"


* * *

Tested on: 786-0 renal
Assay: NCI tumour cell line growth inhibition, 48 h; in the data active = GI50 below about 0.43 µM; inactive = the rest
Possible outcomes: active, inactive

[[record]]
structure_smiles = "CCc1nc2cc(F)c(/C=C/C(=O)NO)cc2c(=O)n1CCc1ccccc1"
category = "active"

[[record]]
structure_smiles = "CC1(C)C(=O)/C(=C\\c2cccnc2)C[C@]2(C)[C@H]3CC[C@@H]4[C@H]5[C@H](C(=O)/C=C/c6cccnc6)CC[C@]5(C(=O)O)CC[C@@]4(C)[C@]3(C)CC[C@@H]12"
category = "inactive"

[[record]]
structure_smiles = "C=CCCCCC/C=C\\[C@@H](O)C#CC#C/C=C/CO"
category = "inactive"

[[record]]
structure_smiles = "COc1cc2ncnc(-n3ncc4cc(NC(=O)Nc5ccccc5)ccc43)c2cc1OC"
category = "inactive"

[[record]]
structure_smiles = "CC(C)c1ccc(-c2cc(-c3cn[nH]c3-c3ccccn3)ccn2)cc1"
category = "inactive"

[[record]]
structure_smiles = "COc1ccc(/C=C/c2c(C(=O)/C=C/c3ccccc3)c(C)nc3ccccc23)cc1"
category = "inactive"

[[record]]
structure_smiles = "CN1CCN(CCCNc2nc3ccc(Oc4ccc(NC(=O)Nc5cc(C(F)(F)F)ccc5F)cc4)cc3[nH]2)CC1"
category = "inactive"

[[record]]
structure_smiles = "C=C1C(=O)O[C@H]2[C@H]1CC/C(COC(=O)NCCCCNC(=O)OC/C1=C/CC[C@@]3(C)O[C@H]3[C@H]3OC(=O)C(=C)[C@@H]3CC1)=C\\CC[C@@]1(C)O[C@@H]21"
category = "inactive"


* * *

Tested on: OVCAR-4 ovarian
Test: NCI tumour cell line growth inhibition, 48 h
GI50 values by entry
Measurement Kind: GI50

[[record]]
structure_smiles = "C=C1C(=O)O[C@H]2[C@H]1CC/C(COC(=O)NCCCCNC(=O)OC/C1=C/CC[C@@]3(C)O[C@H]3[C@H]3OC(=O)C(=C)[C@@H]3CC1)=C\\CC[C@@]1(C)O[C@@H]21"
system = "OVCAR-4 ovarian"
endpoint_value = "1.77 µM"

[[record]]
structure_smiles = "Nc1ccccc1C#C/C=C\\C#Cc1ccccc1N"
system = "OVCAR-4 ovarian"
endpoint_value = "34.2 µM"

[[record]]
structure_smiles = "CN1CCN(CCCNc2nc3ccc(Oc4ccc(NC(=O)Nc5cc(C(F)(F)F)ccc5F)cc4)cc3[nH]2)CC1"
system = "OVCAR-4 ovarian"
endpoint_value = "5.88 µM"

[[record]]
structure_smiles = "C=C(C)[C@@H]1CC[C@]2(CO)CC[C@]3(C)[C@H](CC[C@@H]4[C@@]5(C)C=C(C#N)C(=O)C(C)(C)[C@@H]5CC[C@]43C)[C@@H]12"
system = "OVCAR-4 ovarian"
endpoint_value = "0.769 µM"


* * *

Test system: SK-MEL-28 melanoma
Test: NCI tumour cell line growth inhibition, 48 h
Measurement Kind: GI50

[[record]]
structure_smiles = "CC1(C)C(=O)/C(=C\\c2cccnc2)C[C@]2(C)[C@H]3CC[C@@H]4[C@H]5[C@H](C(=O)/C=C/c6cccnc6)CC[C@]5(C(=O)O)CC[C@@]4(C)[C@]3(C)CC[C@@H]12"
measurement_kind = "GI50"
endpoint_value = "2160 nM"

[[record]]
structure_smiles = "Cc1cc(C(=O)Nc2ccc3cc(CN4CCOCC4)ccc3n2)c(C)n1-c1ccccc1"
measurement_kind = "GI50"
endpoint_value = "2910 nM"

[[record]]
structure_smiles = "COc1ccc(C(=O)c2cc(OC)c(OC)c(OC)c2)cc1/C=C/C(=O)c1ccc(F)cc1"
measurement_kind = "GI50"
endpoint_value = "2480 nM"

[[record]]
structure_smiles = "COc1ccc2[nH]c3c4[nH]c5ccc(OC)cc5c4c4c(c3c2c1)C(=O)NC4=O"
measurement_kind = "GI50"
endpoint_value = "> 25000 nM"


* * *

Tested on: 786-0 renal
Test: NCI tumour cell line growth inhibition, 48 h; in the data active = GI50 below about 0.43 µM; inactive = the rest
Possible outcomes: t (active), f (inactive)

[[record]]
compound = "COCC[C@H]1CCC/C=C/[C@@H]2C[C@H](O)C[C@H]2[C@H](O)/C=C/C(=O)O1"
category = "t"

[[record]]
compound = "Nc1ccccc1C#C/C=C\\C#Cc1ccccc1N"
category = "f"

[[record]]
compound = "COc1ccc(C(=O)c2cc(C)c(OC)c(C)c2)cc1OC(=O)CCl"
category = "t"

[[record]]
compound = "COc1ccc(-c2[nH]c3ccc(OC)cc3c2/C=C(\\C#N)S(=O)(=O)c2ccccc2)cc1"
category = "f"

[[record]]
compound = "CCCC(CCC)NCC(O)c1cc(-c2ccc(C(F)(F)F)cc2)nc(C(F)(F)F)c1 (stereo not given)"
category = "f"


* * *

System: SW-620 colon
Assay: NCI tumour cell line growth inhibition, 48 h
Measurement Kind: TGI

[[record]]
compound = "COc1c(C(=O)/C=C/c2ccccc2)c(O)cc2occc12"
system = "SW-620 colon"
measurement_kind = "TGI"
endpoint_value = "11.7 µM"

[[record]]
compound = "COc1cc(/C=C/c2ccc(OC)c(O)c2)cc(OC)c1"
system = "SW-620 colon"
measurement_kind = "TGI"
endpoint_value = "13.7 µM"

[[record]]
compound = "COC(=O)CC1N=C(NC#N)N(CCc2c[nH]c3ccccc23)C1=O (stereo unspecified)"
system = "SW-620 colon"
measurement_kind = "TGI"
endpoint_value = "> 100 µM"

[[record]]
compound = "CC(C)OC(=O)/C=C/C(=O)O/C=C/[N+](=O)[O-]"
system = "SW-620 colon"
measurement_kind = "TGI"
endpoint_value = "> 100 µM"

[[record]]
compound = "C1=Cc2cc3c(c4nccc(c24)N1)OCO3"
system = "SW-620 colon"
measurement_kind = "TGI"
endpoint_value = "> 57.8 µM"

[[record]]
compound = "Cn1c([C@H](C#N)c2ncccc2[N+](=O)[O-])nc2ccccc21"
system = "SW-620 colon"
measurement_kind = "TGI"
endpoint_value = "> 100 µM"

[[record]]
compound = "Oc1c(N2CCOCC2)cc(-c2cc(N3CCOCC3)c(O)c3ccccc23)c2ccccc12"
system = "SW-620 colon"
measurement_kind = "TGI"
endpoint_value = "6.34 µM"

[[record]]
compound = "COc1ccc(-c2cc(-c3cc(C)cc(Br)c3O)no2)cc1"
system = "SW-620 colon"
measurement_kind = "TGI"
endpoint_value = "> 100 µM"

[[record]]
compound = "CC(=O)O[C@H]1C(=O)[C@@]2(C)[C@H]([C@H](OC(=O)c3ccoc3)[C@]3(O)C[C@H](OC(=O)[C@H](O)[C@@H](NC(=O)c4ccccc4)c4ccccc4)C(C)=C1C3(C)C)[C@]1(OC(C)=O)CO[C@@H]1C[C@@H]2O"
system = "SW-620 colon"
measurement_kind = "TGI"
endpoint_value = "> 12.5 µM"

[[record]]
compound = "O=C(CCc1nc(=S)[nH][nH]1)Nc1ccccc1Cl"
system = "SW-620 colon"
measurement_kind = "TGI"
endpoint_value = "35.6 µM"

[[record]]
compound = "CCOC1=NC(O)c2cccn2-c2sccc21 (stereo unspecified)"
system = "SW-620 colon"
measurement_kind = "TGI"
endpoint_value = "> 100 µM"

[[record]]
compound = "NNC(=O)c1c(SCc2ccccc2)nc2c3ccccc3ccn12"
system = "SW-620 colon"
measurement_kind = "TGI"
endpoint_value = "> 100 µM"

[[record]]
compound = "O=C(c1cccs1)N1CCc2ccccc2C1"
system = "SW-620 colon"
measurement_kind = "TGI"
endpoint_value = "> 100 µM"

[[record]]
compound = "CC1=CC(C)(C)N=C2SC(c3ccc(N)cc3)=NN12"
system = "SW-620 colon"
measurement_kind = "TGI"
endpoint_value = "> 61.2 µM"

[[record]]
compound = "C=CCCC1(CC(Sc2ccccc2)P(=O)(c2ccccc2)c2ccccc2)OCCO1 (stereo unspecified)"
system = "SW-620 colon"
measurement_kind = "TGI"
endpoint_value = "> 10 µM"

[[record]]
compound = "Clc1ccc(-c2cc3nc4ccccc4nc3o2)cc1"
system = "SW-620 colon"
measurement_kind = "TGI"
endpoint_value = "> 100 µM"

[[record]]
compound = "COc1cc2ncnc(-n3ncc4cc(NC(=O)Nc5ccccc5)ccc43)c2cc1OC"
system = "SW-620 colon"
measurement_kind = "TGI"
endpoint_value = "17.9 µM"

[[record]]
compound = "COc1ccc(C(=O)c2cc(OC)c(OC)c(OC)c2)cc1/C=C/C(=O)c1ccc(F)cc1"
system = "SW-620 colon"
measurement_kind = "TGI"
endpoint_value = "7.44 µM"

[[record]]
compound = "COc1ccc2[nH]c3c4[nH]c5ccc(OC)cc5c4c4c(c3c2c1)C(=O)NC4=O"
system = "SW-620 colon"
measurement_kind = "TGI"
endpoint_value = "> 25 µM"

[[record]]
compound = "Cn1cc(C2(C)CC(C)(C)c3c2n(C)c2ccccc32)c2ccccc21 (stereo unspecified)"
system = "SW-620 colon"
measurement_kind = "TGI"
endpoint_value = "> 100 µM"

[[record]]
compound = "CN1CCc2nc(N)nc(-c3nc(N)nc4c3CN(C)CC4)c2C1"
system = "SW-620 colon"
measurement_kind = "TGI"
endpoint_value = "> 100 µM"

